assayProcedure: Plasma concentration in Lewis rat model of MIA at 18 mg/mL, […] post 3 days MIA induction
Type: ADME, organism-based

# structureSmilesString, concentration at 72 h, nM
records = [
    ("O=C1NC(=O)[C@](CNC(=O)c2cc3cc(C(F)(F)F)ccc3o2)(C2CC2)N1", 2200),
]

----------
assayProcedure: Clearance in cynomolgus monkey at 1 mg/kg, iv or 5 mg/kg, po
Format: ADME, organism-based, Macaca fascicularis
runParameters: in vivo

# structureSmilesString, clearance
rows = [
    ("Cn1ccnc1[C@]1(CNC(=O)c2cc3cc(C(F)(F)F)ccc3o2)NC(=O)NC1=O", "7.3 mL/min/kg"),
    ("O=C1NC(=O)[C@](CNC(=O)c2cc3cc(C(F)(F)F)ccc3o2)(C2CC2)N1", "1 mL/min/kg"),
]

----------
assayProcedure: Clearance in rat at 1 mg/kg, iv or 10 mg/kg, po
Type: ADME, organism-based
runParameters: in vivo

# structureSmilesString, clearance
data = [
    ("O=C1NC(=O)[C@](CNC(=O)c2cc3cc(C(F)(F)F)ccc3o2)(C2CC2)N1", "13 mL/min/kg"),
    ("Cn1ccnc1[C@]1(CNC(=O)c2cc3cc(C(F)(F)F)ccc3o2)NC(=O)NC1=O", "4.8 mL/min/kg"),
]

----------
assayProcedure: Plasma concentration in Lewis rat model of MIA at 30 mg/kg, po bid administered post 3 days MIA induction measured after 4 hrs of last dosage on day 7
Type: ADME, organism-based
Consider the following compounds and their measured concentration at 4 h readings.
measuredProperty: concentration at 4 h

# structureSmilesString, observed
measured = [
    ("Cn1ccnc1[C@]1(CNC(=O)c2cc3cc(C(F)(F)F)ccc3o2)NC(=O)NC1=O", "1.6 µM"),
    ("Cc1cnc([C@]2(CNC(=O)c3cc4cc(C(F)(F)F)ccc4o3)NC(=O)NC2=O)n1C", "4.8 µM"),
    ("O=C1NC(=O)[C@](CNC(=O)c2cc3cc(Cl)ccc3o2)(c2nccs2)N1", "90 µM"),
]

----------
assayProcedure: AUC in Lewis rat at 10 mg/kg, po
Type: ADME, organism-based
runParameters: in vivo
measuredProperty: AUC (µM·h)

# structureSmilesString, observed
rows = [
    ("Cc1cnc([C@]2(CNC(=O)c3cc4cc(Cl)ccc4o3)NC(=O)NC2=O)n1C", 27),
    ("O=C1NC(=O)[C@](CNC(=O)c2cc3cc(Cl)ccc3o2)(c2nccs2)N1", 130),
    ("CCn1ccnc1[C@]1(CNC(=O)c2cc3cc(C(F)(F)F)ccc3o2)NC(=O)NC1=O", 28),
]
